Details: in isopropyl acetate, 278.15 K
outcomeMeasure: solubility (mole fraction)
Enter the number alone.

QUERY: # return recorded solubility (mole fraction) for input Cc1nc2n(c(=O)c1CCN1CCC(c3noc4cc(F)ccc34)CC1)CCCC2
RESULT: 0.000742

* * *

Conditions: in isobutyl acetate, 293.15 K
outcomeMeasure: solubility (mole fraction)
The reply should be a number, written without any unit.

QUERY: Please indicate solubility (mole fraction) recorded for Cc1nc2n(c(=O)c1CCN1CCC(c3noc4cc(F)ccc34)CC1)CCCC2
RESULT: 0.0015

* * *

Conditions: in isopropyl acetate, 313.15 K
outcomeMeasure: solubility (mole fraction)
Provide a numeric answer; units are not to be included.

QUERY: Specify solubility (mole fraction) for Cc1nc2n(c(=O)c1CCN1CCC(c3noc4cc(F)ccc34)CC1)CCCC2 and stop.
RESULT: 0.0027
